Data origin: patent US7238830B2

Experiment: Sensory evaluation of sweetness (sweetening potency) relative to sucrose
Settings: values compared to sweetening potency of a 4% aqueous solution of sucrose

{"compound": "CCOC(=O)[C@H](Cc1ccccc1)NC(=O)[C@H](CC(=O)O)NCCC(C)(C)c1ccc(OC)c(O)c1 [Compound 21]", "sweetness potency": 15000}
{"compound": "COC(=O)[C@H](Cc1ccccc1)NC(=O)[C@H](CC(=O)O)NCCC1(c2ccc(O)c(OC)c2)CCCC1 [Compound 20]", "sweetness potency": 30000}
{"compound": "COC(=O)[C@H](Cc1ccccc1)NC(=O)[C@H](CC(=O)O)NCCC(C)(C)c1ccc(C)c(O)c1 [Compound 19]", "sweetness potency": 60000}
{"compound": "COC(=O)[C@H](Cc1ccc(O)cc1)NC(=O)[C@H](CC(=O)O)NCCC(C)c1ccc(O)c(OC)c1 (mixture of isomers) [Compound 5]", "sweetness potency": 25000}
{"compound": "COC(=O)[C@H](Cc1ccccc1)NC(=O)[C@H](CC(=O)O)NCCC(C)(C)c1ccc(O)c(OC)c1 [Compound 9]", "sweetness potency": 40000}
{"compound": "COC(=O)[C@H](Cc1ccccc1)NC(=O)[C@H](CC(=O)O)NCCC(C)(C)c1ccc(OC)c(C)c1 [Compound 17]", "sweetness potency": 30000}
{"compound": "COC(=O)[C@H](Cc1ccccc1)NC(=O)[C@H](CC(=O)O)NCCC(C)c1cccc(O)c1 (mixture of isomers) [Compound 2]", "sweetness potency": 12000}

----------
Assay: Sensory evaluation of sweetness (sweetening potency) relative to sucrose
Conditions: values compared to sweetening potency of a 4% aqueous solution of sucrose
We use 30000 as the dividing line for sweetness potency: on or above the line is Condition met, below is Condition not met.

{"compound": "COC(=O)[C@H](Cc1ccccc1)NC(=O)[C@H](CC(=O)O)NCC(C)Cc1ccc(OC)c(O)c1 (mixture of isomers)", "assignedClass": "Condition not met"}
{"compound": "COC(=O)[C@H](Cc1ccccc1)NC(=O)[C@H](CC(=O)O)NCCC(C)c1ccc(OC)cc1 (mixture of isomers)", "assignedClass": "Condition not met"}
{"compound": "COC(=O)[C@H](Cc1ccccc1)NC(=O)[C@H](CC(=O)O)NCCC(C)(C)c1ccc(OC)c(O)c1", "assignedClass": "Condition met"}
{"compound": "COC(=O)[C@H](Cc1ccccc1)NC(=O)[C@H](CC(=O)O)NCCC(C)c1ccc(OC)c(O)c1 (mixture of isomers)", "assignedClass": "Condition met"}
{"compound": "COC(=O)[C@H](CC1CCCCC1)NC(=O)[C@H](CC(=O)O)NCCC(C)c1ccc(OC)c(O)c1 (mixture of isomers)", "assignedClass": "Condition met"}
{"compound": "COC(=O)[C@H](Cc1ccccc1)NC(=O)[C@H](CC(=O)O)NCCC(C)c1ccc(O)c(C)c1 (mixture of isomers)", "assignedClass": "Condition met"}
{"compound": "COC(=O)[C@H](Cc1ccccc1)NC(=O)[C@H](CC(=O)O)NCCC(C)(C)c1ccc(OC)cc1", "assignedClass": "Condition not met"}

----------
Experiment: physchem
Type: physicochemical
Details: buffer, pH 3
Peptide text beside a SMILES is read from it.

{"compound": "COC(=O)[C@H](Cc1ccccc1)NC(=O)[C@@H](N)CC(=O)O [aspartame, reference compound] (H-Asp-Phe-OMe)", "half-life, h": 23.5}

----------
Assay: Sensory evaluation of sweetness (sweetening potency) relative to sucrose
Details: values compared to sweetening potency of a 4% aqueous solution of sucrose
Recorded sweetness potency values for a group of molecules are listed next.
endpointName: sweetness potency

{"molecule": "COC(=O)[C@H](Cc1ccccc1)NC(=O)[C@H](CC(=O)O)NCCC(C)(C)c1ccc(O)c(C)c1 [Compound 18]", "endpointName": "sweetness potency", "observedMeasurement": 70000}
{"molecule": "COC(=O)[C@H](Cc1ccccc1)NC(=O)[C@H](CC(=O)O)NCCC(C)(C)c1ccc(O)c(O)c1 [Compound 23]", "endpointName": "sweetness potency", "observedMeasurement": 50000}
{"molecule": "COC(=O)[C@H](Cc1ccccc1)NC(=O)[C@H](CC(=O)O)NCCC(C)(C)c1ccc(C)cc1O [Compound 15]", "endpointName": "sweetness potency", "observedMeasurement": 25000}
{"molecule": "COC(=O)[C@H](Cc1ccccc1)NC(=O)[C@H](CC(=O)O)NCCC(C)(C)c1ccc(O)cc1 [Compound 8]", "endpointName": "sweetness potency", "observedMeasurement": 25000}
{"molecule": "COC(=O)[C@H](Cc1ccccc1)NC(=O)[C@H](CC(=O)O)NCCC(C)(C)c1ccc(OC)cc1O [Compound 14]", "endpointName": "sweetness potency", "observedMeasurement": 20000}
{"molecule": "COC(=O)[C@H](Cc1ccccc1)NC(=O)[C@H](CC(=O)O)NCCC(C)(C)c1ccccc1O [Compound 13]", "endpointName": "sweetness potency", "observedMeasurement": 8000}
{"molecule": "COC(=O)[C@](C)(Cc1ccccc1)NC(=O)[C@H](CC(=O)O)NCCC(C)(C)c1ccc(OC)c(O)c1 [Compound 22]", "endpointName": "sweetness potency", "observedMeasurement": 40000}
